Would you kindly list celery allergic individuals responding to the peptide (positive IgE antibody binding spot) for each of these sequences?
Test system: human IgE antibodies
Experiment: Human IgE antibody binding to SPOT-synthesized 12-meric Api g 1.0101 peptide arrays on N-CAPE cellulose membranes, probed with sera, HRP-labeled anti-human IgE, chemiluminescence
Experimental Parameters: sera of 21 celery allergic patients, diluted 1:5; positive if SInorm above the membrane's cut off value
Note: unit % is implicit; provide only the numeric part.

Task: Supply reported celery allergic individuals responding to the peptide (positive IgE antibody binding spot) belonging to this sequence: GDGGPGTLKIIT [compound 16, 12-meric peptide of Api g 1.0101]
Output: 38

Task: Return reported celery allergic individuals responding to the peptide (positive IgE antibody binding spot). Input sequence: IITLPDGGPITT [compound 19, 12-meric peptide of Api g 1.0101]
Output: 29

Task: Indicate the recorded celery allergic individuals responding to the peptide (positive IgE antibody binding spot) value for this sequence: PTADGGSICKTT [compound 36, 12-meric peptide of Api g 1.0101]
Output: 43

Task: Name the recorded celery allergic individuals responding to the peptide (positive IgE antibody binding spot) of the item GGPITTMTLRID [compound 21, 12-meric peptide of Api g 1.0101] in your answer.
Output: 29

Task: Using the record for VLVPTADGGSIC [peptide 35, 12-meric peptide of Api g 1.0101] , state its measured celery allergic individuals responding to the peptide (positive IgE antibody binding spot).
Output: 100

Task: Return the recorded celery allergic individuals responding to the peptide (positive IgE antibody binding spot) value; entry: NHVVLVPTADGG [peptide 34, 12-meric peptide located in the C-terminal region of Api g 1.0101]
Output: 29

Task: Return reported celery allergic individuals responding to the peptide (positive IgE antibody binding spot). Input sequence: IFQGFVIDVDTV [peptide 7, 12-meric peptide of Api g 1.0101]
Output: 38

Attribution: patent EP2402030A1
